- Test system: A549
- Assay Overview: CCK8 cell viability assay, A549
- Assay type: cell-based, Human
- Experimental Parameters: A549, 20 µM, 48 h, CCK8; control = 100%
- Experimental: At first, CCK8 assay was carried out to evaluate the anti-proliferative activity of dolutegravir-1,2,3-triazole derivatives against different cancer cell lines. The results of cell viability of three lung cancer cell lines A549, PC-9 and H460 in the presence of compounds 9 and 10 are summarized in Table 2. Cells were treated with different compounds at the concentration of 20 µM for 48 h. […] Absorbance was measured using a microplate spectrophotometer (Thermo) at 450 nm. […]
Measurement Kind: Cell viability (100%)
Lab book: enter the figure in %, no units written.

// known answers, use as guide
What value of Cell viability (100%) has been recorded for this entry: COc1c2n(cc(C(=O)Nc3cccc(-c4cn(Cc5ccccc5C(F)(F)F)nn4)c3)c1=O)CC1OCCC(C)N1C2=O (stereo not drawn) [Compound 10 h]
77.72

Need Cell viability (100%), item COc1c2n(cc(C(=O)Nc3cccc(-c4cn(-c5ccccc5)nn4)c3)c1=O)C[C@@H]1OCC[C@@H](C)N1C2=O [Compound 9o]
78.59

Moving on to the next compound.
Name the reported Cell viability (100%) value associated with the compound COc1c2n(cc(C(=O)Nc3cccc(-c4cn(-c5ccc(C(F)(F)F)cc5)nn4)c3)c1=O)C[C@@H]1OCC[C@@H](C)N1C2=O [Compound 9d]
82.37
